- assay_target: isolated kinase domain of the human FLT3 receptor (a.a. 571-993) (Homo sapiens, UniProt P36888)
- Construct: human FLT3 receptor (a.a. 571-993)
- Sequence (P36888 571-993): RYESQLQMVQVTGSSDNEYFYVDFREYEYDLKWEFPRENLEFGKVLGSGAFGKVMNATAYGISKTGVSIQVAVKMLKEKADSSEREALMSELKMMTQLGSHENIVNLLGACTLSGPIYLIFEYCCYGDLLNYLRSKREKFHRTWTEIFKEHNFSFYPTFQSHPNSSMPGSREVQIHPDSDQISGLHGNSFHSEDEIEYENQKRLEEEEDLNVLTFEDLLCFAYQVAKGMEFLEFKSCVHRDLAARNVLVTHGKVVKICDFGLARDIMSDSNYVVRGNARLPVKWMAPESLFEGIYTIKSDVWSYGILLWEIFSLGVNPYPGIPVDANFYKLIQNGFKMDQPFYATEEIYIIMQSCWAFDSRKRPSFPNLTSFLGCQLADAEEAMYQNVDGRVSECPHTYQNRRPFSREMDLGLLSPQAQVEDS
- test: FLT3 fluorescence polarization kinase assay
- condition_summary: 150 uM ATP; uncertainty ±10%
endpoint: IC50 (µM)

| compound | endpoint | numeric_readout |
| --- | --- | --- |
| COc1cc2c(C3CCN(C(=O)Nc4ccc(N5CCCC5)cc4)CC3)ncnc2cc1OCCN1CCCC1=O | IC50 | 0.017 |
| CS(=O)(=O)N1CC[C@@H](Oc2ccc3c(C4CCN(C(=O)Nc5ccc(N6CCCC6)cc5)CC4)ncnc3c2)C1 | IC50 | 0.001 |

a: CC(=O)N1CCN(CCOc2ccc3c(C4CCN(C(=O)Nc5ccc(N6CCOCC6)cc5)CC4)ncnc3c2)CC1
b: CC(C)Oc1ccc(NC(=O)N2CCC(c3ncnc4cc(OCCN5CCOCC5)ccc34)CC2)cc1
INPUT: // returns a or b , whichever has the lower IC50 Pick one; state its label.
OUTPUT: b

P: COc1cc2ncnc(C3CCN(C(=O)Nc4ccc(C5CCCCC5)cc4)CC3)c2cc1OC
Q: CCC(C)c1ccc(NC(=O)N2CCC(c3ncnc4cc(OC)c(OC)cc34)CC2)cc1 (stereo not shown)
R: CS(=O)(=O)NCCCOc1ccc2c(C3CCN(C(=O)Nc4ccc(OC5CCCC5)nc4)CC3)ncnc2c1
INPUT: Exam item: list the entries in increasing order of IC50. A ranking is expressed here by listing the labels in the requested order.
OUTPUT: R, P, Q

I: CC(C)Oc1ccc(NC(=O)N2CCC(c3ncnc4ccc(C#CCN5CCCCC5)cc34)CC2)cc1
II: O=C(Nc1ccc(N2CCCC2)nc1)N1CCC(c2ncnc3cc(OCCN4CCOCC4)ccc23)CC1
INPUT: Smaller IC50 value? Options are I and II Kindly give the label for the entry you pick.
OUTPUT: II
(II: 0.008 µM, I: 0.053 µM)

1: O=C(Nc1ccc(N2CCCC2)cc1)N1CCC(c2ncnc3cc(OCCN4CCOC4=O)ccc23)CC1
2: O=C(Nc1ccc(N2CCCC2)cc1)N1CCC(c2ncnc3cc(NCCO)ccc23)CC1
INPUT: Sort 1 and 2 by IC50 descending and give the first. Identify your selection by its label.
OUTPUT: 1
